Below, each entry is listed alongside its reported pEC50.
tested.target: human GPR40 receptor (Homo sapiens)
Sequence (O14842 whole entry): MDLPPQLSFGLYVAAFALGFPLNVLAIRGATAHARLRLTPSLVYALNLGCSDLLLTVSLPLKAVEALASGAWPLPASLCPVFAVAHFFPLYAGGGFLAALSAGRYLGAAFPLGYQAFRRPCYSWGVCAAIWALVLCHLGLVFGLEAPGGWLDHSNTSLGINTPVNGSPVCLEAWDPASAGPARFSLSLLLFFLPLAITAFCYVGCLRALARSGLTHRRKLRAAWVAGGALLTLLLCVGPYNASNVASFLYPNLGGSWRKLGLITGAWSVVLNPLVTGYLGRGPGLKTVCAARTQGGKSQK
test.summary: IP1 accumulation measurements using the IPOne assay system
condition.set: 1321N1 cells stably expressing human GPR40 receptor, stimulation 1 h at 37° C.
pEC50: −log10 of the molar value.
measured.property: pEC50

> print(dat)
                                smiles.entry  modifier  observed.value
 1  Cc1cc(OC2CCOCC2)cc(C)c1-c1ccc(F)c(CNc2ccc([C@H]3C[C@@H]3C(=O)O)cn2)c1         =            7.00
 2  COc1cc(-c2cc(C)c(-c3cc(CNc4ccc([C@H]5C[C@@H]5C(=O)O)cn4)c(F)cc3F)c(C)c2)ccn1         =            8.10
 3  CC(C)(O)CCOc1ccc(-c2cc(CNc3ccc([C@H]4C[C@@H]4C(=O)O)cn3)ccc2C(F)(F)F)cc1         =            7.82
 4  Cc1ccc(Cl)c(-c2cc(CNc3ccc([C@H]4C[C@@H]4C(=O)O)cn3)c(F)cc2F)c1Cl         =            7.51
 5  Cc1cccc(C)c1-c1cc(CNc2ccc([C@H]3C[C@@H]3C(=O)O)cn2)c(F)cc1F         =            7.44
 6  COc1c(F)c(F)c(-c2ccc(F)c(CNc3ccc([C@H]4C[C@@H]4C(=O)O)cn3)c2)c(F)c1F         =            6.32
 7  Cc1cccc(C)c1-c1ccc(F)c(CNc2ccc([C@H]3C[C@@H]3C(=O)O)cn2)c1         =            6.88
 8  Cc1cc(-c2ccn(C)c(=O)n2)cc(C)c1-c1cc(CNc2ccc([C@H]3C[C@@H]3C(=O)O)cn2)c(F)cc1F         =            7.37
 9  O=C(O)[C@H]1C[C@@H]1c1ccc(NCc2cc(-c3c(F)cccc3F)ccc2F)nc1         =            5.64
10  Cc1cc(-c2nnn(CC(C)(C)O)n2)cc(C)c1-c1ccc(F)c(CNc2ccc([C@H]3C[C@@H]3C(=O)O)cn2)c1         =            7.96
11  Cc1cc(C#N)cc(C)c1-c1ccc(F)c(CNc2ccc([C@H]3C[C@@H]3C(=O)O)cn2)c1         =            6.86
12  Cc1cc(OCC2(O)CCS(=O)(=O)CC2)cc(C)c1-c1ccc(F)c(CNc2ccc([C@H]3C[C@@H]3C(=O)O)cn2)c1         =            6.37
13  COc1cc(C)c(-c2cc(CNc3ccc([C@H]4C[C@@H]4C(=O)O)cn3)c(F)cc2F)c(C)c1         =            7.23
14  CNC(=O)c1cc(C)c(-c2ccc(F)c(CNc3ccc([C@H]4C[C@@H]4C(=O)O)cn3)c2)c(C)c1         =            6.43
15  Cc1cc(OCC2(O)CCOCC2)cc(C)c1-c1cc(CNc2ccc([C@H]3C[C@@H]3C(=O)O)cn2)c(F)cc1F         =            6.72
16  Cc1cc(OCC2(O)CCSCC2)cc(C)c1-c1cc(CNc2ccc([C@H]3C[C@@H]3C(=O)O)cn2)c(F)cc1F         =            6.99
17  Cc1cc(C#N)cc(C)c1-c1cc(CNc2ccc([C@H]3C[C@@H]3C(=O)O)cn2)c(F)cc1F         =            7.08
18  Cc1cnc(-c2cc(C)c(-c3ccc(F)c(CNc4ccc([C@H]5C[C@@H]5C(=O)O)cn4)c3)c(C)c2)nc1         =            7.82
19  Cc1cc(OC2CCOCC2)cc(C)c1-c1cc(CNc2ccc([C@H]3C[C@@H]3C(=O)O)cn2)c(F)cc1F         =            7.24
20  O=C(O)[C@H]1C[C@@H]1c1ccc(NCc2cc(-c3c(C(F)(F)F)cccc3C(F)(F)F)ccc2F)nc1         =            6.08
21  COc1cc(C)c(-c2ccc(F)c(CNc3ccc([C@H]4C[C@@H]4C(=O)O)cn3)c2)c(C)c1         =            7.10
22  N#CC1(c2ccccc2-c2cc(CNc3ccc([C@H]4C[C@@H]4C(=O)O)cn3)c(F)cc2F)CC1         =            5.87
23  CC(C)c1ccccc1-c1ccc(F)c(CNc2ccc([C@H]3C[C@@H]3C(=O)O)cn2)c1         =            6.50
24  Cc1cc(-c2ccnn2C)cc(C)c1-c1cc(CNc2ccc([C@H]3C[C@@H]3C(=O)O)cn2)c(F)cc1F         =            7.80
25  Cc1cc(OCC2(O)CCOCC2)cc(C)c1-c1ccc(F)c(CNc2ccc([C@H]3C[C@@H]3C(=O)O)cn2)c1         =            6.66
26  Cc1cc(OCC2CCOCC2)cc(C)c1-c1ccc(F)c(CNc2ccc([C@H]3C[C@@H]3C(=O)O)cn2)c1         =            7.37
27  NCc1ccc(F)c(-c2cc(CNc3ccc([C@H]4C[C@@H]4C(=O)O)cn3)c(F)cc2F)c1         <            5.00
28  Cc1cc(OCC2(C)COC2)cc(C)c1-c1cc(CNc2ccc([C@H]3C[C@@H]3C(=O)O)cn2)c(F)cc1F         =            7.05
29  Cc1cnc(-c2cc(C)c(-c3cc(CNc4ccc([C@H]5C[C@@H]5C(=O)O)cn4)c(F)cc3F)c(C)c2)nc1         =            7.96
30  Cc1cc(OCC2(C)COC2)cc(C)c1-c1ccc(F)c(CNc2ccc([C@H]3C[C@@H]3C(=O)O)cn2)c1         =            6.83
31  Cc1cc(C(N)=O)cc(C)c1-c1cc(CNc2ccc([C@H]3C[C@@H]3C(=O)O)cn2)c(F)cc1F         =            6.47

###

test.summary: Aqueous solubility in buffer versus acetonitrile/water (1/1), LC-UV
Assay type: physicochemical
condition.set: kinetic from dmso stock, buffer pH 2.2, 24 h shaking, 2.5% DMSO, ">" if more than 90% dissolved
Each item that follows carries a reported solubility at 24 h.
measured.property: solubility at 24 h (µg/mL)

molecule	modifier	observed.value
Cc1cc(C(=O)NCC(C)(C)O)cc(C)c1-c1ccc(F)c2c1CC[C@H]2Oc1ccc([C@H]2C[C@@H]2C(=O)O)cc1 [WO 2013/178575 Example 15, reference compound]	<	1
Cc1cc(OCC2(O)CCOCC2)cc(C)c1-c1ccc(F)c(CNc2ccc([C@H]3C[C@@H]3C(=O)O)cn2)c1	=	122
Cc1cc(-c2ccnn2C)cc(C)c1-c1cc(CNc2ccc([C@H]3C[C@@H]3C(=O)O)cn2)c(F)cc1F	=	103
Cc1cc(-c2nnn(C)n2)cc(C)c1-c1ccc(F)c(CNc2ccc([C@H]3C[C@@H]3C(=O)O)cn2)c1	=	102
Cc1ccc(Cl)c(-c2cc(CNc3ccc([C@H]4C[C@@H]4C(=O)O)cn3)c(F)cc2F)c1Cl	=	84
COc1cc(C)c(-c2ccc(F)c(CNc3ccc([C@H]4C[C@@H]4C(=O)O)cn3)c2)c(C)c1	=	91
Cc1cc(-c2nnn(C)n2)cc(C)c1-c1cc(CNc2ccc([C@H]3C[C@@H]3C(=O)O)cn2)c(F)cc1F	=	89

###

test.summary: Aqueous solubility in buffer versus acetonitrile/water (1/1), LC-UV
Type: physicochemical
condition.set: kinetic from dmso stock, buffer pH 2.2, 24 h shaking, 2.5% DMSO, ">" if more than 90% dissolved
This listing pairs compounds with measured solubility at 24 h.

compound	solubility at 24 h
Cc1cc(O[C@@H]2CCOC2)cc(C)c1-c1cc(CNc2ccc([C@H]3C[C@@H]3C(=O)O)cn2)c(F)cc1F	106 µg/mL
COc1cc(-c2cc(C)c(-c3cc(CNc4ccc([C@H]5C[C@@H]5C(=O)O)cn4)c(F)cc3F)c(C)c2)ccn1	97 µg/mL
Cc1cc(OCC2(O)CCOCC2)cc(C)c1-c1cc(CNc2ccc([C@H]3C[C@@H]3C(=O)O)cn2)c(F)cc1F	123 µg/mL
Cc1cnc(-c2cc(C)c(-c3cc(CNc4ccc([C@H]5C[C@@H]5C(=O)O)cn4)c(F)cc3F)c(C)c2)nc1	88 µg/mL
Cc1cc(OC2CCOCC2)cc(C)c1-c1ccc(F)c(CNc2ccc([C@H]3C[C@@H]3C(=O)O)cn2)c1	87 µg/mL
COc1cc(OC)c(-c2ccc(F)c(CNc3ccc([C@H]4C[C@@H]4C(=O)O)cn3)c2)c(OC)c1	112 µg/mL
Cc1cnc(-c2cc(C)c(-c3ccc(F)c(CNc4ccc([C@H]5C[C@@H]5C(=O)O)cn4)c3)c(C)c2)nc1	78 µg/mL
Cc1cc(-c2cc(=O)n(C)cn2)cc(C)c1-c1ccc(F)c(CNc2ccc([C@H]3C[C@@H]3C(=O)O)cn2)c1	107 µg/mL
Cc1cc(OCCC(C)(C)O)cc(C)c1-c1ccc(F)c2c1CC[C@H]2Oc1ccc([C@H]2C[C@@H]2C(=O)O)cc1 [WO 2013/178575 Example 17, reference compound]	< 1 µg/mL
Cc1cc(C#N)cc(C)c1-c1cc(CNc2ccc([C@H]3C[C@@H]3C(=O)O)cn2)c(F)cc1F	97 µg/mL
Cc1cc(-c2nnn(C)n2)cc(C)c1-c1ccc(F)c2c1CC[C@H]2Oc1ccc([C@H]2C[C@@H]2C(=O)O)cc1 [WO 2013/178575 Example 45, reference compound]	< 1 µg/mL
Cc1cc(OCCC(C)(C)O)cc(C)c1-c1ccc(F)c(CNc2ccc([C@H]3C[C@@H]3C(=O)O)cn2)c1	87 µg/mL
Cc1ccc(Cl)c(-c2ccc(F)c(CNc3ccc([C@H]4C[C@@H]4C(=O)O)cn3)c2)c1Cl	83 µg/mL
CC(C)(O)CCOc1ccc(-c2cc(CNc3ccc([C@H]4C[C@@H]4C(=O)O)cn3)ccc2C(F)(F)F)cc1	92 µg/mL
CCc1cccc(CC)c1-c1cc(CNc2ccc([C@H]3C[C@@H]3C(=O)O)cn2)c(F)cc1F	82 µg/mL
Cc1cc(C#N)cc(C)c1-c1ccc(F)c(CNc2ccc([C@H]3C[C@@H]3C(=O)O)cn2)c1	86 µg/mL
